Hello, the source for this data is patent US10392422B2, in case you need it.

Catalogue of MIC readings, one per entry.
- System: Methicillin Resistant Staphylococcus aureus strain USA 300 (NRS384)
- test-description: MIC, broth micro-dilution technique (CLSI)
- Type: cell-based
- particulars: Staphylococcus aureus, 22 h, read-out: MIC (μg/mL) S. aureus
Form entry: value (µg/mL) — number only.

Known results for compounds:
smiles-record: C[C@H](NC(=O)[C@@H]1Cc2ccc(O)c(c2)-c2cc(ccc2OCCN)[C@H](N(C)C(=O)[C@H](CCCCN)NC(=O)c2ccc(-c3ccc(Cl)cc3)cc2)C(=O)N[C@@H](C)C(=O)N1)B1O[C@@H]2C[C@@H]3C[C@@H](C3(C)C)[C@]2(C)O1
unit: µg/mL
MIC: 2
--
smiles-record: CCCCCCCCc1ccc(C(=O)N[C@@H](CCCN)C(=O)N(C)[C@@H]2C(=O)N[C@@H](C)C(=O)N[C@H](C(=O)N[C@@H](C)B3O[C@@H]4C[C@@H]5C[C@@H](C5(C)C)[C@]4(C)O3)Cc3ccc(OCCN)c(c3)-c3cc2ccc3OCCN)c(C)c1
unit: µg/mL
MIC: 0.094
--
smiles-record: CCCCCCCCCCCCCC(=O)N[C@@H](CN)C(=O)N(C)[C@@H]1C(=O)N[C@@H](C)C(=O)N[C@H](C(=O)O)Cc2ccc(OCCN)c(c2)-c2cc1ccc2OCCN
unit: µg/mL
MIC: 0.38
--
smiles-record: C[C@@H]1NC(=O)[C@@H](N(C)C(=O)[C@H](CCCCN)NC(=O)c2ccc(/C=C/c3ccccc3)cc2)c2ccc(OCCN)c(c2)-c2cc(ccc2OCCN)C[C@@H](C(=O)O)NC1=O
unit: µg/mL
MIC: 3
--
smiles-record: C[C@@H]1NC(=O)[C@@H](N(C)C(=O)[C@H](CCCCN)NC(=O)c2ccc(-c3ccc(Cl)cc3)cc2)c2ccc(O)c(c2)-c2cc(ccc2O)C[C@@H](C(=O)NC/C=C/S(C)(=O)=O)NC1=O
unit: µg/mL
MIC: 48
--
smiles-record: C[C@@H]1NC(=O)[C@@H](N(C)C(=O)[C@H](CCCCN)NC(=O)c2ccc(-c3ccccc3Cl)cc2)c2ccc(OCCN)c(c2)-c2cc(ccc2OCCN)C[C@@H](C(=O)O)NC1=O
unit: µg/mL
MIC: 4
--
smiles-record: CCCCCCCCc1ccc(C(=O)N[C@@H](CCCN)C(=O)N(C)[C@@H]2C(=O)N[C@@H](C)C(=O)N[C@H](C(=O)N[C@@H](C)B3O[C@@H]4C[C@@H]5C[C@@H](C5(C)C)[C@]4(C)O3)Cc3ccc(OCCCN)c(c3)-c3cc2ccc3OCCCN)cc1
unit: µg/mL
MIC: 0.13

For the next question, use this compound.
Task item: Entry under review: CC(=O)OCC(=O)[C@H](C)NC(=O)[C@@H]1Cc2ccc(O)c(c2)-c2cc(ccc2OCCN)[C@H](N(C)C(=O)[C@H](CCCCN)NC(=O)c2ccc(-c3ccc(Cl)cc3)cc2)C(=O)N[C@@H](C)C(=O)N1 . Reported MIC?
Reply: 0.71
